Would you kindly list cytotoxicity at 10 µM for each of these compounds?
assayDetails: Toxicity liver stage against HepG2, at 10uM
Assay type: cell-based
Set-up: test concentration 10 uM, cell line HepG2-A16-CD81EGFP
experimentalContext: human, HepG2-A16-CD81EGFP cells; read-out: INHIBITION
Give bare numbers, in %.

compound: O=C(c1ccc(F)cc1)N1CCC2(CCN(Cc3ccccn3)C2=O)C1 (configuration not stated)
cytotoxicity at 10 µM [%]: -136
//
compound: Cc1cc(CN2CCN(C(=O)NCc3cccs3)CC2)no1
cytotoxicity at 10 µM [%]: -11.6
//
compound: OCCN1CCC2(CCc3cc(-c4ccoc4)ccc32)CC1
cytotoxicity at 10 µM [%]: -0.582
//
compound: COCc1nn(C(C)C)c2c1CCN(Cc1cccs1)C2
cytotoxicity at 10 µM [%]: -9.55
//
compound: CC(C)NC(=O)N1CCCC2(CC(C(=O)Nc3ccccc3)=NO2)C1 (configuration not stated)
cytotoxicity at 10 µM [%]: -3.36
//
compound: Cc1cc(N2CCCC2)c(C#N)c(C)n1
cytotoxicity at 10 µM [%]: 10.4
//
compound: COc1cccc2c1OCC(C(=O)NCCc1nc3c(s1)CCC3)C2 (configuration not stated)
cytotoxicity at 10 µM [%]: -39.6
//
compound: O=C(c1ccc(Br)cc1F)N1CCc2ccncc21
cytotoxicity at 10 µM [%]: -1.16
//
compound: c1cn2c(n1)CN(CC1CC1)CC(CN1CCOCC1)C2 (configuration not stated)
cytotoxicity at 10 µM [%]: 1.49
//
compound: CN(C)C(=O)C1CCC2(CCN(C(=O)Nc3ccccc3)CC2)O1 (configuration not stated)
cytotoxicity at 10 µM [%]: -106

Dear colleague, could you please provide cytotoxicity at 10 µM for the compounds listed below?
1. Cc1cnn(CC2CCCN2Cc2nnsc2Cl)c1 (configuration not stated)
2. COCCn1ccc2c(C(=O)NC(C)C)cccc21

[-8.72, 3.46]

====

assayDetails: Toxicity liver stage against HepG2, at 10uM
Format: cell-based
Parameters: test concentration 10 uM, cell line HepG2-A16-CD81EGFP
experimentalContext: human, HepG2-A16-CD81EGFP cells; read-out: INHIBITION
measureName: cytotoxicity at 10 µM (%)
One number for each entry, in %.

Dear reader, for each entry below, please note its cytotoxicity at 10 µM.
1. O=C(Cc1ccncc1)N1CCC2(CC1)CC(c1ccccc1)CO2 (configuration not stated)
2. CC(C)Cc1ncc2c(n1)CN(c1cc(N)nc(N)n1)C2

1. -86.1
2. -6.27

====

Answer each item with its documented cytotoxicity at 10 µM.
assayDetails: Toxicity liver stage against HepG2, at 10uM
Assay type: cell-based
Parameters: test concentration 10 uM, cell line HepG2-A16-CD81EGFP
experimentalContext: human, HepG2-A16-CD81EGFP cells; read-out: INHIBITION
One number for each entry, in %.

# example entries with known answers
molecule: O=C(N1CCCC1)N1CCO[C@H]2[C@@H](OCc3cccnc3)CC[C@@H]21
cytotoxicity at 10 µM [%]: -1.6
--
molecule: Cc1cc2cc(C(=O)N[C@@H]3CC[C@@H](N4CCOCC4)[C@@H]3O)ccc2o1
cytotoxicity at 10 µM [%]: -1.85
--
molecule: Cn1cc(C(=O)N2CCCC(C(=O)CCc3ccccc3)C2)cn1 (stereo unspecified)
cytotoxicity at 10 µM [%]: -5.16
--
molecule: CC(C)(C)c1cc(C[C@H]2CNCC[C@H]2CC(=O)NC2CCCCC2)no1
cytotoxicity at 10 µM [%]: 2.82
--
molecule: COc1ccc(-c2noc([C@@H](C)NC(=O)CC(C)C)c2C(=O)O)cc1
cytotoxicity at 10 µM [%]: 2.05
--
molecule: Cc1nn(C)c2sc(C(=O)N3CCCC(n4ccnc4C)C3)cc12 (stereo unspecified)
cytotoxicity at 10 µM [%]: -10
--
molecule: COc1cccc(CN2CC[C@H](NC(C)=O)[C@@H](O)CC2)c1F
cytotoxicity at 10 µM [%]: -8.63
--
molecule: Clc1ccc2c(c1)C=C(CNC1CCc3ncnn3C1)CO2 (stereo unspecified)
cytotoxicity at 10 µM [%]: -1.19
--
molecule: Cc1cc(NC(=O)C(C)N2CCN(c3nccs3)CC2)on1 (stereo unspecified)
cytotoxicity at 10 µM [%]: -12.6
--
molecule: CCc1nnc(C(C)N2CCN(CCC(=O)NC3CC3)CC2)o1 (stereo unspecified)
cytotoxicity at 10 µM [%]: 16

Lab note: next molecule to report on.
What the record says about COCCCN1CCC(NC(=O)C2CC2)CC1 : cytotoxicity at 10 µM is -5.02

====

assayDetails: Toxicity liver stage against HepG2, at 10uM
Assay type: cell-based
Set-up: test concentration 10 uM, cell line HepG2-A16-CD81EGFP
experimentalContext: human, HepG2-A16-CD81EGFP cells; read-out: INHIBITION
measureName: cytotoxicity at 10 µM (%)
Answers are plain numbers, in %.

Known results for compounds:
compound: Cc1cc(C)n(CC2CCCN2C(=O)c2ccc3ccccc3n2)n1 (stereo unspecified)
u: %
recordedResult: -2.53
--
compound: CN(C)S(=O)(=O)N1CC[C@]2(O)CCN(c3ncccn3)C[C@@H]2C1
u: %
recordedResult: 5.74
--
compound: CC(C)CC(O)C1CCN(C(=O)c2ccc(C(F)(F)F)nc2O)CC1 (stereo unspecified)
u: %
recordedResult: 2.5
--
compound: CC(c1ccccc1Cl)N(C)Cc1nc2c(cnn2C)c(=O)[nH]1 (stereo unspecified)
u: %
recordedResult: -5.19
--
compound: CC(C)Oc1ccc(C(=O)N2CCC(Nc3cccnn3)CC2)cn1
u: %
recordedResult: -31

I'm hoping you can list cytotoxicity at 10 µM for every compound here, please.
1. Cc1cc(C)n(CC2CN(CCOc3cccc(C#N)c3)CCO2)n1 (stereo unspecified)
2. COc1cccc(OC)c1-c1c[nH]c(C)n1
3. COCc1nc2ncc3c(=O)n(-c4ccccc4OC)ccc3n2n1
4. Cc1occc1C(=O)N1CCCC2(CCN(c3ccsc3)C2=O)C1 (stereo unspecified)
5. CCN(CC)CC1CN(CCc2ccccc2)Cc2nccn2C1 (stereo unspecified)
6. CN(C)CC(=O)N1CCN(CC(O)c2ccc(F)cc2)CC1 (stereo unspecified)

1. -10.9
2. -1.57
3. -8.17
4. -70.7
5. -9.61
6. -9.11

====

Can you tell me cytotoxicity at 10 µM for the items I'm about to list?
assayDetails: Toxicity liver stage against HepG2, at 10uM
Type: cell-based
Set-up: test concentration 10 uM, cell line HepG2-A16-CD81EGFP
experimentalContext: human, HepG2-A16-CD81EGFP cells; read-out: INHIBITION
Answers are plain numbers, in %.

# count of solved cases: 3
compound: CCOCCCC(=O)N1CCN(c2cccc(OC)c2)C(C)C1 (centres undefined)
cytotoxicity at 10 µM (%): 0.0272
--
compound: CCCn1c(SCC(N)=O)nnc1-c1csc2c1CCCC2
cytotoxicity at 10 µM (%): -1.42
--
compound: Cc1ccc(S(=O)(=O)N(CC2CCOC2)C2CC2)cc1N(C)C (centres undefined)
cytotoxicity at 10 µM (%): -9.77

I need cytotoxicity at 10 µM for every entry listed below, if you could help.
1. Cc1cc(C)c2c(c1)C(NCc1nnc3n1CCC3)CCCO2 (centres undefined)
2. CC(C)(C)c1cc(NC(=O)CN2CCC(N3CCNC3=O)CC2)on1
3. CCN1CCOC(CNCc2ccc(OCc3ccccn3)cc2)C1 (centres undefined)
4. CCN1CC2(CCC1=O)CCN(CCc1nccn1C)CC2
5. COc1ccccc1Nc1nc2c(C)nn(C)c2c(=O)n1C

1: -0.117; 2: -2.05; 3: -7.83; 4: 4.65; 5: 2.56

Provide the reported cytotoxicity at 10 µM of each entry below, same order.
1. COc1ccc(CCC(=O)NCCC2CCCO2)cc1Br (centres undefined)
2. NC(=O)N1CCC2(CC1)CN(c1ccsc1)C(=O)CO2
3. Cc1cc(Br)cnc1N(C)CC1CCOC1 (centres undefined)
4. CCc1ccc(C2CCCCCN2C(=O)CNC(=O)C2CC2)o1 (centres undefined)
5. COCCNC(=O)[C@@H]1CC[C@@H]2[C@@H](CCN2c2ncc(F)cn2)O1

1: 2.6; 2: 10.7; 3: 4.99; 4: -7.25; 5: -0.554

Dear colleague, could you send me cytotoxicity at 10 µM for each of the items below? Thanks.
1. Cc1nc(-c2ccc(Cl)s2)sc1C(=O)NC(C)(C)C(N)=O
2. Cc1cnc(CN(C)C2CCN(CC(=O)N(C)c3nccs3)C2)o1 (centres undefined)
3. O=C1N(c2ccsc2)CCC12CCCN(Cc1ccccn1)C2 (centres undefined)
4. CNc1cc(CNC(=O)c2ccnc(OC)c2)nc(-c2ccncc2)n1
5. CSc1cccc(CN(C)C(=O)c2cccc(C3CCCNC3)c2)c1 (centres undefined)
6. CCCC(=O)NCC(=O)NC1CC(C)(C)Cc2oc(C)cc21 (centres undefined)

1. -3.04
2. -4.1
3. 2.03
4. -7.08
5. -1.08
6. -4.32

// input: 5 compounds below; output: cytotoxicity at 10 µM for each
1. Cc1ccc(C)c(Oc2ccc(CNC(=O)C3CCC(=O)N3)cn2)c1 (centres undefined)
2. O=C(NCc1nnnn1-c1ccccc1)c1ccc(C2CCCO2)s1 (centres undefined)
3. COc1cccc(CN2CCC3(CC2)CCN(c2ncccn2)C3)c1
4. Cc1cc(C(=O)N2CC[C@@H]3CN(C)S(=O)(=O)[C@@H]3CC2)no1
5. Cc1noc(C)c1CN1C[C@@H]2COC[C@@H](C(=O)N3CCCO3)[C@@H]2C1

1. 5.98
2. 0.363
3. -7.46
4. -7.55
5. -69.9

Sourced from ChEMBL document CHEMBL4513216
